Target: hTRPV3 (Homo sapiens (Human), UniProt Q8NET8)
Sequence (Q8NET8 whole entry): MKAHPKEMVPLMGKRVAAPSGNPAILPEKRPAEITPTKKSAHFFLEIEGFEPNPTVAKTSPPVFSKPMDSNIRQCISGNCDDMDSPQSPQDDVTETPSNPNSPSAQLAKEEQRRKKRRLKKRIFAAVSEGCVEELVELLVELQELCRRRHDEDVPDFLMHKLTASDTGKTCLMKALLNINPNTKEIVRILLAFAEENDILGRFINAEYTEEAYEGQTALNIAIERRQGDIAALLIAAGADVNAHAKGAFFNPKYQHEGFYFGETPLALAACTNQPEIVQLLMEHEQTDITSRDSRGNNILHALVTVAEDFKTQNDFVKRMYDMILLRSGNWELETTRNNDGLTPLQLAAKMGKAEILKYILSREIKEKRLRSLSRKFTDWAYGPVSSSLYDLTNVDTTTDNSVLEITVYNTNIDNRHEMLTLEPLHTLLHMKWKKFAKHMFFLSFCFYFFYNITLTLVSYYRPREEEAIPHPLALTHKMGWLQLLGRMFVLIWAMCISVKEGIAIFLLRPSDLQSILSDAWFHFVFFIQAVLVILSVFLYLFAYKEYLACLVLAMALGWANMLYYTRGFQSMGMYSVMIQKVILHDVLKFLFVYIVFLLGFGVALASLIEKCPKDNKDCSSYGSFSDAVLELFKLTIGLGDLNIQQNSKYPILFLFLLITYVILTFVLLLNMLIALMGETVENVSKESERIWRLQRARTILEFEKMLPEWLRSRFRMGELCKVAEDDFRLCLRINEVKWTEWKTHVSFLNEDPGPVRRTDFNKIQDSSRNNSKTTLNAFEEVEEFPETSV
Experiment: Whole-cell patch clamp, hTRPV3 Phase 1 / Phase 2 currents
Assay type: cell-based
Conditions: Phase 1 current, inward, whole-cell patch clamp; read-out: hTRPV3 Patch P1 Inwd
observable: IC50

Before answering, review these 5 worked examples.
[[record]]
compound = "OC[C@@H]1C[C@@H](Oc2ccc(C(F)(F)F)cn2)CN1c1ccc(-c2ccccc2)cc1"
target_entity = "hTRPV3 (Homo sapiens (Human), UniProt Q8NET8)"
observable = "IC50"
assay_value = "> 1 µM"

[[record]]
compound = "NC(=O)c1cc(-c2ccccc2)ccc1N1CC[C@H](Nc2ncccc2Cl)C1"
target_entity = "hTRPV3 (Homo sapiens (Human), UniProt Q8NET8)"
observable = "IC50"
assay_value = "0.1 to 1 µM"

[[record]]
compound = "O=C(c1ccc(Cl)cc1)c1ccc(N2CC[C@H](Oc3ncccc3Cl)C2)c(CO)c1"
target_entity = "hTRPV3 (Homo sapiens (Human), UniProt Q8NET8)"
observable = "IC50"
assay_value = "0.01 to 0.1 µM"

[[record]]
compound = "Cc1ccccc1-c1ccc(N2CC[C@H](Oc3ccc(C(F)(F)F)cn3)C2)c(CO)c1"
target_entity = "hTRPV3 (Homo sapiens (Human), UniProt Q8NET8)"
observable = "IC50"
assay_value = "0.1 to 1 µM"

[[record]]
compound = "O=C(c1ccc(Cl)cc1)c1ccc(N2CC[C@H](Nc3ccc(F)cn3)C2)c(CCO)c1"
target_entity = "hTRPV3 (Homo sapiens (Human), UniProt Q8NET8)"
observable = "IC50"
assay_value = "> 1 µM"


Consider the compound OCc1cc(C(O)c2ccccc2Cl)ccc1N1CC[C@H](Oc2ccccn2)C1 (stereo partly drawn) . State its measured IC50.
0.1 to 1 µM

Consider the compound CC(C)c1ccccc1-c1ccc(C2CCN(C(=O)c3ccccn3)C2)c(CO)c1 (stereo not drawn) . State its measured IC50.
0.01 to 0.1 µM

Consider the compound Cc1ccccc1-c1ccc(N2CC[C@H](Oc3ncccc3C)C2)c(CO)n1 . State its measured IC50.
0.1 to 1 µM

Consider the compound CC(C)NC(=O)c1ccccc1N1CC[C@@H](Oc2ccc(C(F)(F)F)cn2)C1 . State its measured IC50.
> 1 µM

Consider the compound Cc1cccnc1O[C@H]1CCN(c2ccc(-c3ccccc3)cc2CO)C1 . State its measured IC50.
0.1 to 1 µM

Consider the compound COc1ccnc(C(=O)N2CCC(c3ccc(-c4ccccc4C4CC4)cc3CO)C2)c1 (stereo not drawn) . State its measured IC50.
0.1 to 1 µM

Consider the compound OCC(O)c1cc(-c2ccccc2)ccc1N1CC[C@H](Oc2ccc(C(F)(F)F)cn2)C1 (stereo partly drawn) . State its measured IC50.
0.1 to 1 µM

Consider the compound Cc1ccccc1N1CCC(Nc2ncc(C(F)(F)F)cc2Cl)C1 (stereo not drawn) . State its measured IC50.
> 1 µM

Consider the compound CC(C)c1ccccc1Oc1ccc(C2CCN(C(=O)c3ccc(C(F)(F)F)cn3)C2)c(CO)c1 (stereo not drawn) . State its measured IC50.
0.01 to 0.1 µM

Consider the compound NC(=O)c1cc(-c2ccccc2)ccc1N1CC[C@@H](Oc2ccccn2)C1 . State its measured IC50.
0.1 to 1 µM

---

Some molecules, each annotated with its measured IC50.
Target: hTRPV3 (Homo sapiens (Human), UniProt Q8NET8)
Assay: Whole-cell patch clamp, hTRPV3 Phase 1 / Phase 2 currents
Assay type: cell-based
Details: read-out: hTRPV3 (nM) (Phase 1)

[[record]]
test_smiles = "OCc1nc(Oc2ccccc2)ccc1N1CC[C@H](Oc2ccc(C(F)(F)F)cn2)C1"
target_entity = "hTRPV3 (Homo sapiens (Human), UniProt Q8NET8)"
assay_value = "> 3200 nM"


Consider the molecule NC(=O)c1cc(C2=NCCN2)ccc1N1CC[C@@H](Oc2ccc(C(F)(F)F)cn2)C1 . State its measured IC50.
> 3200 nM

Consider the molecule Cc1ccc(O[C@H]2CCN(c3ccc(-c4ccccc4CN(C)C)cc3CO)C2)nc1 . State its measured IC50.
> 3200 nM
